Target: T1, CRBN, Q96SW2;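 further: pooled lentiviral library of zinc finger degron-EGFP fusions in mCherry-positive Jurkat cells, FACS-sorted after compound exposure, with degron abundance counted by next-generation sequencing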
T1 chain: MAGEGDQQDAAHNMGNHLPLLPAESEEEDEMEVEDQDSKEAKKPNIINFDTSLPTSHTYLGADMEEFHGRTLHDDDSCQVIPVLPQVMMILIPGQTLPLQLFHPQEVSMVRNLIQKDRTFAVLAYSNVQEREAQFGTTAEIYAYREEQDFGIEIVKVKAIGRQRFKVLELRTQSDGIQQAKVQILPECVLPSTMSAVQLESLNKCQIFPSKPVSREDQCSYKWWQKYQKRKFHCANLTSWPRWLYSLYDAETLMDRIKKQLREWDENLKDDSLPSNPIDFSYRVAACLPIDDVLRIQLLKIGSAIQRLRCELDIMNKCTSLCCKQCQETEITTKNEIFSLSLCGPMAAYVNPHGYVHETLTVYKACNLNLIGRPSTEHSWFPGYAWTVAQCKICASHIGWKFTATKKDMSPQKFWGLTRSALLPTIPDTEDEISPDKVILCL
Assay: log2 fold change of degron read counts, EGFP-low vs EGFP+ sorted cells (limma voom), compound-induced degradation; higher = more compound-induced degradation of the degron-EGFP fusion; degrons are variants of IKZF1/3 zinc finger 2; compound dose not given here
Settings: Jurkat; 18 h; compound: thalidomide
Whole data set: some 8,300 sequences, median “log2 fold change of degron read counts, EGFP-low vs EGFP+ sorted cells (limma voom), compound-induced degradation” near -1.1, cut for the highest 2% near 3.2. For the sample, the highest values were picked, then their nearest neighbours and some sequences at random.
Label satisfied when log2 fold change of degron read counts is at or above 1; anything below gets not satisfied.

Recorded results for 5 sequences are shown here.
sequence_content="FSCNICGASFTQKGNLLRHIKL [46F_47S_49N_50I_52G_53A_54S_55F_67L_, Q9UKT9]" assigned_label="not satisfied"
sequence_content="FVCEVCGAPFTQKGNLLRHIKL [46F_47V_49E_50V_52G_53A_54P_55F_67L_, Q9UKT9]" assigned_label=satisfied
sequence_content="FRCEVCGAPFTQKGNLLRHIKL [46F_47R_49E_50V_52G_53A_54P_55F_67L_, Q9UKT9]" assigned_label=satisfied
sequence_content="FGCEVCGAPFTQKGNLLRHIKL [46F_47G_49E_50V_52G_53A_54P_55F_67L_, Q9UKT9]" assigned_label="not satisfied"
sequence_content="FDCEICGRLFTQKGNLLRHIKL [46F_47D_49E_50I_52G_53R_54L_55F_67L_, Q9UKT9]" assigned_label="not satisfied"

Attention now turns to another entry.
Prompt line: Could you please find out whether FRCEICGRPFTQKGNLLRHIKL [46F_47R_49E_50I_52G_53R_54P_55F_67L_, Q9UKT9] has log2 fold change of degron read counts that meets 1 or exceeds it?
Response line: satisfied
